biological target: murine CCR2 (Mus musculus, UniProt P51683); construct: host or cells: U2OS β-arrestin cell line; test: Functional β-arrestin recruiting test with human MCP-1 (B-2a); format: cell-based; conditions: U2OS β-arrestin cell line transfected with murine CCR2; agonist human MCP-1 at EC50 (about 3 nM); in some cases means of several determinations
Sequence (P51683 whole entry): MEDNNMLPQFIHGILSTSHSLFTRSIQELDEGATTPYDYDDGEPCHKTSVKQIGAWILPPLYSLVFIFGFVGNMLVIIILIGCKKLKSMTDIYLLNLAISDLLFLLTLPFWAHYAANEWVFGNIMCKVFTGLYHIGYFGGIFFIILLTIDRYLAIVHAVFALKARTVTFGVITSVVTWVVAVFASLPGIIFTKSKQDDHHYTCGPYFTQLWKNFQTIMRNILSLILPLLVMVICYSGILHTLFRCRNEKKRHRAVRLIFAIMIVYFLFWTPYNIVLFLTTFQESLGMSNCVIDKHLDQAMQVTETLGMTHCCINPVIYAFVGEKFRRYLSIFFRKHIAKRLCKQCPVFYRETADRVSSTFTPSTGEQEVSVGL
Hi! Just check whether IC50 is below 100 nM. Below gives MET, equal or above gives NOT MET.

{"columns": ["smiles.representation", "category"],
 "data": [
  ["O=c1[nH]c(-c2ncccc2F)nc(C(F)(F)F)c1Cc1ccc(Cl)c(C(F)(F)F)c1", "NOT MET"],
  ["O=c1[nH]c(-c2ccccn2)nc(C(F)(F)F)c1Oc1ccc(F)c(Cl)c1", "MET"],
  ["O=c1[nH]c(-c2ncc(F)cc2F)nc(C(F)(F)F)c1Cc1ccc(Cl)c(Cl)c1", "NOT MET"],
  ["O=c1[nH]c(-c2ncccc2Cl)nc(C(F)(F)F)c1Oc1ccc(Cl)c(F)c1", "MET"],
  ["Nc1cccc(-c2nc(C(F)(F)F)c(Oc3ccc(Cl)c(C(F)(F)F)c3)c(=O)[nH]2)n1", "MET"],
  ["Nc1ncnn1-c1nc(C(F)(F)F)c(Oc2ccc(Cl)c(Cl)c2)c(=O)[nH]1", "NOT MET"],
  ["CCOC(=O)C1CCN(c2nc(C(F)(F)F)c(Cc3ccc(Cl)c(Cl)c3)c(=O)[nH]2)CC1", "NOT MET"],
  ["Cc1cc(C)n(-c2nc(C(F)(F)F)c(Cc3ccc(Cl)c(Cl)c3)c(=O)[nH]2)n1", "NOT MET"],
  ["O=c1[nH]c(Cc2ncn[nH]2)nc(C(F)(F)F)c1Cc1ccc(Cl)c(Cl)c1", "NOT MET"],
  ["Cn1ncc(-c2nc(C(F)(F)F)c(Oc3ccc(Cl)c(C(F)(F)F)c3)c(=O)[nH]2)c1N", "NOT MET"],
  ["Cc1cc(-c2nc(C(F)(F)F)c(Cc3ccc(Cl)c(Cl)c3)c(=O)[nH]2)nn1C", "NOT MET"],
  ["O=c1[nH]c(-c2n[nH]cc2Cl)nc(C(F)(F)F)c1Oc1ccc(Cl)c(C(F)(F)F)c1", "MET"],
  ["COc1cccnc1-c1nc(C(F)(F)F)c(Oc2ccc(Cl)c(Cl)c2)c(=O)[nH]1", "MET"],
  ["O=c1[nH]c(-c2cccnc2)nc(C(F)(F)F)c1Cc1ccc(Cl)c(Cl)c1", "NOT MET"],
  ["O=c1[nH]c(-c2cccc(Cl)n2)nc(C(F)(F)F)c1Oc1ccc(Cl)c(Cl)c1", "NOT MET"],
  ["O=c1[nH]c(-c2ncccc2F)nc(C(F)(F)F)c1Oc1ccc(Cl)c(Cl)c1", "MET"],
  ["O=c1[nH]c(-c2ccc(Cl)cn2)nc(C(F)(F)F)c1Cc1ccc(Cl)c(Cl)c1", "NOT MET"],
  ["O=c1[nH]nc(Cc2nc(C(F)(F)F)c(Cc3ccc(Cl)c(Cl)c3)c(=O)[nH]2)[nH]1", "NOT MET"],
  ["O=c1[nH]c(-c2n[nH]cc2Cl)nc(C(F)(F)F)c1Oc1ccc(Cl)c(Cl)c1", "MET"],
  ["COc1cccnc1Nc1nc(C(F)(F)F)c(Oc2ccc(Cl)c(C(F)(F)F)c2)c(=O)[nH]1", "NOT MET"],
  ["Cn1cnc(-c2nc(C(F)(F)F)c(Cc3ccc(Cl)c(Cl)c3)c(=O)[nH]2)c1", "MET"],
  ["O=c1[nH]c(-c2ncon2)nc(C(F)(F)F)c1Oc1ccc(Cl)c(Cl)c1", "MET"],
  ["Cc1cc(-c2nc(C(F)(F)F)c(Oc3ccc(Cl)c(Cl)c3)c(=O)[nH]2)nn1C", "MET"],
  ["Nc1ccc(-c2nc(C(F)(F)F)c(Oc3ccc(Cl)c(C(F)(F)F)c3)c(=O)[nH]2)nc1", "MET"],
  ["O=c1[nH]c(-c2ncc(C(F)(F)F)cc2Cl)nc(C(F)(F)F)c1Oc1ccc(Cl)c(Cl)c1", "NOT MET"],
  ["O=c1[nH]c(-c2cc[nH]n2)nc(C(F)(F)F)c1Oc1ccc(Cl)c(Cl)c1", "MET"]
]}

---

target: murine CCR2 (Mus musculus, UniProt P51683); construct: host or cells: U2OS β-arrestin cell line; test: Functional β-arrestin recruiting test with murine MCP-1 (B-2b); type: cell-based; conditions: U2OS β-arrestin cell line transfected with murine CCR2; agonist murine MCP-1; in some cases means of several determinations
pIC50: −log10 of the molar value.

{"columns": ["smiles.representation", "measured.target", "pIC50"],
 "data": [
  ["Cc1cnc(-c2nc(C(F)(F)F)c(Oc3ccc(Cl)c(Cl)c3)c(=O)[nH]2)cc1C", "murine CCR2 (Mus musculus, UniProt P51683)", 5.77],
  ["CSc1cccnc1-c1nc(C(F)(F)F)c(Oc2ccc(Cl)c(C(F)(F)F)c2)c(=O)[nH]1", "murine CCR2 (Mus musculus, UniProt P51683)", 8.21],
  ["COc1cnn(-c2nc(C(F)(F)F)c(Oc3ccc(Cl)c(Cl)c3)c(=O)[nH]2)c1", "murine CCR2 (Mus musculus, UniProt P51683)", 6.60],
  ["CC(C)(C)Sc1cccnc1-c1nc(C(F)(F)F)c(Oc2ccc(Cl)c(C(F)(F)F)c2)c(=O)[nH]1", "murine CCR2 (Mus musculus, UniProt P51683)", 5.68],
  ["COc1cncnc1-c1nc(C(F)(F)F)c(Oc2ccc(Cl)c(Cl)c2)c(=O)[nH]1", "murine CCR2 (Mus musculus, UniProt P51683)", 7.07],
  ["COc1c[nH]nc1-c1nc(C(F)(F)F)c(Oc2ccc(Cl)c(Cl)c2)c(=O)[nH]1", "murine CCR2 (Mus musculus, UniProt P51683)", 7.31],
  ["CN(C)c1ccc(-c2nc(C(F)(F)F)c(Oc3ccc(Cl)c(C(F)(F)F)c3)c(=O)[nH]2)nc1", "murine CCR2 (Mus musculus, UniProt P51683)", 7.29],
  ["O=c1[nH]c(-c2ncccc2Cl)nc(C(F)(F)F)c1Oc1ccc(Cl)c(C(F)(F)F)c1", "murine CCR2 (Mus musculus, UniProt P51683)", 8.05],
  ["Cn1nc(-c2nc(C(F)(F)F)c(Oc3ccc(Cl)c(C(F)(F)F)c3)c(=O)[nH]2)c2cccnc21", "murine CCR2 (Mus musculus, UniProt P51683)", 5.70]
]}

---

target: murine CCR2 (Mus musculus); construct: host or cells: U2OS β-arrestin cell line; test: Functional β-arrestin recruiting test with murine MCP-1 (B-2b); type: cell-based; conditions: U2OS β-arrestin cell line transfected with murine CCR2; agonist murine MCP-1; in some cases means of several determinations
Hi! Just check whether IC50 is below 1000 nM. Below gives MET, equal or above gives NOT MET.

{"columns": ["smiles.representation", "measured.target", "category"],
 "data": [
  ["O=c1[nH]c(-c2ccnnc2)nc(C(F)(F)F)c1Oc1ccc(Cl)c(C(F)(F)F)c1", "murine CCR2 (Mus musculus)", "NOT MET"],
  ["O=c1[nH]c(-c2ncccc2-c2ccccc2)nc(C(F)(F)F)c1Oc1ccc(Cl)c(Cl)c1", "murine CCR2 (Mus musculus)", "NOT MET"],
  ["Cc1cc(Oc2c(C(F)(F)F)nc(-c3cc[nH]n3)[nH]c2=O)ccc1Cl", "murine CCR2 (Mus musculus)", "MET"],
  ["CN(C)c1ccc(-c2nc(C(F)(F)F)c(Oc3ccc(Cl)c(Cl)c3)c(=O)[nH]2)nn1", "murine CCR2 (Mus musculus)", "MET"],
  ["O=c1[nH]c(-c2ccnnc2)nc(C(F)(F)F)c1Oc1ccc(Cl)c(Cl)c1", "murine CCR2 (Mus musculus)", "NOT MET"],
  ["COc1cc(OC)nc(-c2nc(C(F)(F)F)c(Oc3ccc(Cl)c(Cl)c3)c(=O)[nH]2)n1", "murine CCR2 (Mus musculus)", "MET"],
  ["CC(C)Oc1cnn(-c2nc(C(F)(F)F)c(Oc3ccc(Cl)c(Cl)c3)c(=O)[nH]2)c1", "murine CCR2 (Mus musculus)", "MET"],
  ["CCCc1cc(-c2nc(C(F)(F)F)c(Oc3ccc(Cl)c(Cl)c3)c(=O)[nH]2)no1", "murine CCR2 (Mus musculus)", "NOT MET"],
  ["Cn1nc(-c2nc(C(F)(F)F)c(Oc3ccc(Cl)c(Cl)c3)c(=O)[nH]2)c2ccccc21", "murine CCR2 (Mus musculus)", "NOT MET"],
  ["O=c1[nH]c(-c2ncccc2F)nc(C(F)(F)F)c1Oc1ccc(Cl)c(C(F)(F)F)c1", "murine CCR2 (Mus musculus)", "MET"],
  ["CSc1ccnc(-c2nc(C(F)(F)F)c(Oc3ccc(Cl)c(Cl)c3)c(=O)[nH]2)c1", "murine CCR2 (Mus musculus)", "MET"],
  ["COCc1cc(-c2nc(C(F)(F)F)c(Oc3ccc(Cl)c(C(F)(F)F)c3)c(=O)[nH]2)no1", "murine CCR2 (Mus musculus)", "MET"],
  ["CC(C)(C)c1nncn1-c1nc(C(F)(F)F)c(Oc2ccc(Cl)c(Cl)c2)c(=O)[nH]1", "murine CCR2 (Mus musculus)", "NOT MET"],
  ["O=c1[nH]c(-c2ccsn2)nc(C(F)(F)F)c1Oc1ccc(Cl)c(C(F)(F)F)c1", "murine CCR2 (Mus musculus)", "MET"]
]}
